test: in vitro; conditions: African green monkey
assay.readout: CC50

For reference, reported CC50 for CCC(CC)COC(=O)[C@H](C)N[P@](=O)(OC[C@H]1O[C@@](C#N)(c2ccc3c(N)ncnn23)[C@H](O)[C@@H]1O)Oc1ccccc1 [Compound E, Remdesivir, reference compound] stands at > 5 µM
